B1: r11_951_TrROS_Hall (parent)
chain: KKKYVIKVYFEDTGKEVEIEAESKEEALEAAKRLAEELGLKIKKVEIYP

Variants of: B1
Assay: folding stability dG (cDNA display proteolysis); higher = more stable
Conditions: PBS, room temperature
recorded endpoint: folding stability dG (kcal/mol)
Give bare numbers, in kcal/mol.

>>> print(df.to_string())
   variant_designation     recorded_endpoint  numeric_readout
0                 A30R  folding stability dG             4.58
1                 E20S  folding stability dG             4.22
2                 A27K  folding stability dG             1.74
3                 E18F  folding stability dG             4.21
4                 E22G  folding stability dG             4.32
5                 A35N  folding stability dG             3.14
6                 I19S  folding stability dG             3.56
7                 E11M  folding stability dG              4.8

Quick one: give me folding stability dG for each item below, same order please.
1. A31L
2. Y9V
3. A27T

1: 4.21; 2: 4.3; 3: 3.58
